Please go through the items and note down their amyloid nucleation score.
- assay.comment: amyloid nucleation score (Sup35N fusion, yeast selection) (log enrichment); library NNK2; higher = more nucleation; inactive = no reads after selection;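 further: zero at mode of non-aggregating sequences after 7 days selection at 30°C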
Give bare numbers.

Please supply amyloid nucleation score for each of the following items, keeping them in order.
1. LFLSLTTQNWFNYNLPI
2. MAHWSSSNSTVVLGCLAWML
3. GHGFFLTTMSSGNNTDRNSG

7.32
6.17
-1.22

Record amyloid nucleation score per entry; entries follow.
1. AWSLDVTTM
2. WLFSVSISGREDMMWSGLLE
3. NGGTMLMRLDRS
4. LTFRAVSWTWCYPPELSSCS
5. GMIRLLGLFIKKRWRSNTCL
6. IMMLEVDDLYGIEQSTFWK
7. GTLPYFKN

1: 0.051; 2: 0.061; 3: -0.216; 4: 0.775; 5: -0.238; 6: -0.33; 7: -0.641

====

- assay.comment: amyloid nucleation score (Sup35N fusion, yeast selection) (log enrichment); library NNK3; higher = more nucleation; inactive = no reads after selection
Provide the reported amyloid nucleation score of each item.
One number for each entry.

1. CMFCLPMGNSIRGLGNRNSV; 1.87

For YMLIKYGSL , what is its reported amyloid nucleation score? 0.449

====

- assay.comment: amyloid nucleation score (Sup35N fusion, yeast selection) (log enrichment); library NNK1; higher = more nucleation; inactive = no reads after selection
// FALSE strictly below 0.7 in amyloid nucleation score; TRUE otherwise

1. SCMRSKWKNTWLKYRYVNCI; FALSE
2. QCCLNVLDC; TRUE

Quick check, amyloid nucleation score >= 0.7? LRNVYLSGKFVYRGELNCET TRUE

Say whether HILRIWLRGLWMILYRTYEN shows amyloid nucleation score of 0.7 or more. FALSE

For this sequence, is measured amyloid nucleation score 0.7 or higher? LFESGSRDFLRQKLTFGTVP FALSE

Hello, I need to know if YALKLSMDVGLYLLFEGDRD has measured amyloid nucleation score not below 0.7. Thanks! FALSE

# bool: amyloid nucleation score of FGINVSIFTESLWLNYC >= 0.7 TRUE

Can VYINVYHYWRFSKKYVGKLL be said to have amyloid nucleation score at or above 0.7? FALSE

hey, is amyloid nucleation score for this one >= 0.7? QWLYYVKEPIAYSLL FALSE

====

- assay.comment: amyloid nucleation score (Sup35N fusion, yeast selection) (log enrichment); library NNK1; higher = more nucleation; inactive = no reads after selection
value.kind: amyloid nucleation score

1. WESDIFFMIGLVQRRQLTGP; 2.91
2. VDRGCKYKQLMREVVSEHVI; 0.753
3. DLIWPRTRYRSTVD; inactive
4. YCQCVCFSAMYSKTSRLNMG; 6.74
5. LSVIIII; 4.96
6. RGSRTY; 0.17
7. TGNGTCCESFSRSDKENSDA; inactive
8. GSYWWDCFVNGGYEKFCTVP; 0.191

# per-item lookup of amyloid nucleation score; items listed below
1. LDKSGSLVPKRKVTLKDKQR
2. KVYYRVKMHYSLAGEARTDT
3. CCERGWS
4. AIRFDLVTFAAIEGIIYKGR

[-0.375, 0.621, 0.156, 0.136]

Give amyloid nucleation score for each of the items listed below.
1. YPCNLFCMMTLLNYLGSSVA
2. KWSPIAGSTMIMEMCH
3. EIRWSHIFERWV
4. MLHWLKLIRTIGRFIRFFRC
5. NGKSAQ
6. RGFNVVHGGELRRMLMTEGD
7. YHGGYGSSHMWRFVRCIKAY

1. 6.49
2. -1.08
3. 0.628
4. inactive
5. 4.05
6. 0.926
7. 0.168
